Each entry below lists one item and its recorded abundance fitness value.
B1: Androgen receptor, residues 557 to 632; numbered along this chain, P10275 (parent)
chain: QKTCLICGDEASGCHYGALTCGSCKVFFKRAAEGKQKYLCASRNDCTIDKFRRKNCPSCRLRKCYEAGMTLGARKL

Variants of: B1
Assay: abundance fitness (aPCA) (normalised: wild type 0, dead -1); higher = more abundant; growth selection in yeast, the domain comes from the species named
Conditions: Homo sapiens
ASSAY_ENDPOINT: abundance fitness

1) K29S	-0.248
2) C24H	-0.891
3) C14M	-0.087
4) K37L	-0.126
5) L71K	0.041
6) K50H	-0.087
7) A73Q	-0.138
8) C64L	-0.592
9) Q36E	0.031
10) L71W	-0.151
11) C40W	-1.16
12) A73R	0.008
13) Q36G	0.011
14) H15M	-0.088
15) N55L	-0.022
16) Y65I	-0.081
17) C46F	-0.912
18) A41N	-0.165
19) G8S	-0.165
20) E33C	0.072
21) K37P	0.006
22) K37I	-0.091
23) G8R	-0.43
24) Y65F	-0.056
25) C56H	-0.804
26) L39W	-0.064
27) Y16L	-0.275
28) T20S	0.047
29) S58G	0.059
30) R30F	0.03
31) Q36L	-0.075
32) R52A	-0.157
33) C14A	-0.013
34) I48S	-0.251
35) L76S	-0.084
36) C24G	-0.907
37) D45Y	-0.176
38) L39G	-0.009
39) R74E	0.066
40) L71D	-0.185
41) I48Y	-0.177
42) G72T	-0.056
43) P57D	0.1
44) Y38I	0.111
45) C14S	-0.105
46) L39V	0.029
47) N44T	-0.159
48) A31M	-0.182
49) C14H	-0.035
50) F27G	-0.884
51) Q1M	0.007
52) F27H	-0.805
53) H15Y	-0.237
54) K25D	-0.025
55) V26Q	0.007
56) P57F	-0.024
57) Y38G	-0.222
58) T47M	-0.086
59) L19V	-0.035
60) C14E	0.002
61) C46K	-0.735
62) K37W	-0.168
63) K29G	-0.039
64) K29Q	-0.169
65) K35P	0.074
66) D45W	-0.465
67) C64N	-0.505
68) L39P	-0.086
69) L5G	-0.189
70) P57W	0
71) S12R	-0.06
72) D9W	-0.289
73) G13S	-0.034
74) R52S	-0.087
75) E33M	0.014
76) D49A	-0.283
77) L5F	-0.078
78) K63W	-0.482
79) L71E	-0.114
80) C14R	-0.142
81) L39S	-0.128
82) G8C	-0.319
83) N44E	-0.031
84) A18I	0.124
85) I48H	-0.482
86) S23N	-0.108
87) K25T	0.005
88) Y16T	-0.445
89) G72W	-0.076
90) L5N	-0.058
91) D9A	-0.089
